Recorded measurements of pKd, one per entry
biological target: T1, extracellular domain (ECD) of human epidermal growth factor receptor 2 (HER2) (Homo sapiens, UniProt P04626); assay: SPR; BIAcore T200; HER2/ECD immobilised on a CM5 chip by amine coupling to 1000 RU; IgG flowed in PBST (0.05% Tween 20) at 30 uL/min; regeneration 10 mM glycine pH 1.5; global fit to a 1:1 binding model; settings: both partners purified
T1 construct: human epidermal growth factor receptor 2 (HER2), extracellular domain; also called HER2/ECD
pKd: −log10 of the molar value.

BINDER: GH2-40 IgG (antibody, V domains shown, source: HEK293-F, transient transfection, purified (Protein A, Superdex 200)) VH: EVQLVESGGGLVQPGGSLRLSCAASGFTINSWGIHWVRQAPGKGLEWVAWIGPYWGFTSYADSVKGRFTISADTSKNTAYLQMNSLRAEDTAVYYCARFDGHFDGVMDYWGQGTLVTVSS VL: DIQMTQSPSSLSASVGDRVTITCRASQDVNNGVAWYQQKPGKAPKLLISGTPWLYSGVPSRFSGSGSGTDFTLTISSLQPEDFATYYCQQYFDWPLTFGQGTKVEIK
pKd: 8.52

BINDER: GH2-96 IgG (antibody, V domains shown, source: HEK293-F, transient transfection, purified (Protein A, Superdex 200)) VH: EVQLVESGGGLVQPGGSLRLSCAASGFTISGYGIHWVRQAPGKGLEWVAGIGPFWGYTFYADSVKGRFTISADTSKNTAYLQMNSLRAEDTAVYYCARFGHIVDGLMDYWGQGTLVTVSS VL: DIQMTQSPSSLSASVGDRVTITCRASQDVNGGVAWYQQKPGKAPKLLIYGSSWLYSGVPSRFSGSGSGTDFTLTISSLQPEDFATYYCQQYFDWPITFGQGTKVEIK
pKd: 8.27

BINDER: GH2-78 IgG (antibody, V domains shown, source: HEK293-F, transient transfection, purified (Protein A, Superdex 200)) VH: EVQLVESGGGLVQPGGSLRLSCAASGFTINNWGIHWVRQAPGKGLEWVAGIGPYGGYTSYADSVKGRFTISADTSKNTAYLQMNSLRAEDTAVYYCARFGVIIDGIMDYWGQGTLVTVSS VL: DIQMTQSPSSLSASVGDRVTITCRASQDVNNSVAWYQQKPGKAPKLLISWPTGLYSGVPSRFSGSGSGTDFTLTISSLQPEDFATYYCQQYYSWPITFGQGTKVEIK
pKd: 7.31
